Ref: patent US20260345582A1

# experiment description: liver microsomal metabolic stability, monkey
# test settings: microsomes
reported endpoint: CLint scaled at 1 µM (mL/min/kg)
Value expressed in mL/min/kg; do not type the unit.

Entry under test: Cc1c(-c2ccc(N3CCc4cccc(C(=O)Nc5nc6ccccc6s5)c4C3)nc2C(=O)OCc2ccc(O[C@@H]3O[C@H](CO)[C@H](O)[C@H](O)[C@H]3O)c([N+](=O)[O-])c2)cnn1CC12CC3CC(CC(C3)C1)C2 . Its CLint scaled at 1 µM was 98

====

# experiment description: liver microsomal metabolic stability, mouse
# test settings: microsomes
# Description: Hepatic Microsomal Metabolic Stability A13bGa1 was co-incubated with the mouse, rat, canine, monkey and human […] and the incubation medium at a final drug concentration of 1 μM in the incubation system for 60 minutes. Samples were taken and analyzed at time points 0, 15, 30, 45 and 60 minutes during the incubation. […] The residual percentage, half-life, intrinsic clearance, amplified clearance, hepatic clearance and hepatic extraction ratio were determined. […]
reported endpoint: half-life at 1 h, 1 µM (h)
Please respond with the number in h and leave the unit unwritten.

Measured half-life at 1 h, 1 µM of Cc1c(-c2ccc(N3CCc4cccc(C(=O)Nc5nc6ccccc6s5)c4C3)nc2C(=O)OCc2ccc(O[C@@H]3O[C@H](CO)[C@H](O)[C@H](O)[C@H]3O)c([N+](=O)[O-])c2)cnn1CC12CC3CC(CC(C3)C1)C2 : 1.68

====

# experiment description: liver microsomal metabolic stability, human
# test settings: microsomes
reported endpoint: CLint scaled at 1 h, 1 µM (mL/min/kg)
A number alone suffices; assume mL/min/kg.

Notebook: Cc1c(-c2ccc(N3CCc4cccc(C(=O)Nc5nc6ccccc6s5)c4C3)nc2C(=O)OCc2ccc(O[C@@H]3O[C@H](CO)[C@H](O)[C@H](O)[C@H]3O)c([N+](=O)[O-])c2)cnn1CC12CC3CC(CC(C3)C1)C2 , CLint scaled at 1 h, 1 µM read as 132

====

# experiment description: plasma metabolic stability, canine
# Type: in vitro ADME
# test settings: dog, 10 μM prodrug, 120 min, read-out: The peak area after normalisation at minute 120, oxidative dehydrogenation metabolite
reported endpoint: metabolised at 2 h, 10 µM (%)
Number in %, nothing else.

Memo: Cc1c(-c2ccc(N3CCc4cccc(C(=O)Nc5nc6ccccc6s5)c4C3)nc2C(=O)OCc2ccc(O[C@@H]3O[C@H](CO)[C@H](O)[C@H](O)[C@H]3O)c([N+](=O)[O-])c2)cnn1CC12CC3CC(CC(C3)C1)C2 , reported metabolised at 2 h, 10 µM: 0.48

====

# experiment description: liver microsomal metabolic stability, canine
# test settings: dog, microsomes
reported endpoint: CLint scaled at 1 µM (mL/min/kg)
Reply with just the number (in mL/min/kg).

Form field CLint scaled at 1 µM, entry Cc1c(-c2ccc(N3CCc4cccc(C(=O)Nc5nc6ccccc6s5)c4C3)nc2C(=O)OCc2ccc(O[C@@H]3O[C@H](CO)[C@H](O)[C@H](O)[C@H]3O)c([N+](=O)[O-])c2)cnn1CC12CC3CC(CC(C3)C1)C2 : 73.1

====

# experiment description: plasma metabolic stability, mouse
# Format: in vitro ADME
# test settings: 10 μM, 120 min, read-out: The peak area after normalisation at minute 120, initial drug
reported endpoint: remaining at 2 h, 10 µM (%)
Answer with a number only, understood to be in %.

Per the records, this molecule ( Cc1c(-c2ccc(N3CCc4cccc(C(=O)Nc5nc6ccccc6s5)c4C3)nc2C(=O)OCc2ccc(O[C@@H]3O[C@H](CO)[C@H](O)[C@H](O)[C@H]3O)c([N+](=O)[O-])c2)cnn1CC12CC3CC(CC(C3)C1)C2 [Compound A13bGa1] ) has remaining at 2 h, 10 µM equal to 100
